Experimental Target: yeast α-glucosidase
Protocol: α-glucosidase inhibitory activity assay (p-NPG substrate, absorbance at 405 nm)
Type: biochemical, Saccharomyces cerevisiae
Run Parameters: IC50 ± SD; PBS pH 6.8, 37 °C, three times in parallel; read-out: IC50 (μM), inhibition activities on α-Glucosidase
Decide using IC50 alone. Strictly below 7 µM: TRUE. Equal to or above 7 µM: FALSE.

Below are worked cases with known answers.
compound="CC1(C)Oc2cc(/C=C/c3ccccc3)cc(O)c2CC1O (stereo not drawn)" discrete_label=FALSE
compound=CC(C)=CCc1c(O)cc(O)c2c(=O)c(O)c(-c3ccc(O)c(O)c3)oc12 discrete_label=TRUE

Input line: Record O=c1cc(-c2ccc(O)cc2)oc2c(C3OCC(O)C(O)C3O)c(O)cc(O)c12 [Compound 23, apigenin-8-C-α-L-arabinopyranoside] : is its IC50 strictly below 7 µM?
Output line: FALSE

Input line: Hi there! Is IC50 for COc1cc(O)c2c(c1CC=C(C)C)O[C@H](c1ccccc1)[C@@H](O)C2=O below 7 µM, do you know?
Output line: FALSE

Input line: Here's an entry: COc1cc(O)c2c3c1C[C@H](C(C)(C)O)[C@H](c1ccccc1)[C@H]3OC2=O . Is its IC50 below 7 µM?
Output line: FALSE

Input line: Confirm or reject: IC50 of CC1(C)C=Cc2c(cc3occ(-c4ccc(O)cc4)c(=O)c3c2O)O1 lies strictly below 7 µM
Output line: FALSE

* * *

Experimental Target: yeast α-glucosidase
Protocol: α-glucosidase inhibitory activity assay (p-NPG substrate, absorbance at 405 nm)
Format: biochemical, Saccharomyces cerevisiae
Run Parameters: read-out: IC50 against α-glucosidase (text, with unit)
Experimental Endpoint: IC50
Answers without a unit are incomplete; give the number and then its unit.

IC50 reading for CC(C)=CCc1c(O)cc(O)c2c(=O)c(O)c(-c3ccc(O)c(O)c3)oc12 : 870 nM

* * *

Test system: α-glucosidase
Protocol: Inhibitory kinetics against α-glucosidase (Lineweaver–Burk plots)
Assay type: biochemical, Saccharomyces cerevisiae
Run Parameters: Lineweaver–Burk plot; compound 0, 5.44, 10.87, 21.74 μM
Experimental Endpoint: inhibition type against α-glucosidase

molecule="COc1cc(/C=C/c2ccccc2)cc(O)c1CC=C(C)C [Compound 9, longistylin A]" experimental_target=α-glucosidase reported_result=mixed-competitive
molecule="COc1cc(O)c2c(=O)cc(-c3ccccc3)oc2c1CC=C(C)C [Compound 13, 5-hydroxy-7-methoxy-8-prenylflavone]" experimental_target=α-glucosidase reported_result=mixed-competitive

* * *

Experimental Target: yeast α-glucosidase
Protocol: α-glucosidase inhibitory activity assay (p-NPG substrate, absorbance at 405 nm)
Assay type: biochemical, Saccharomyces cerevisiae
Run Parameters: IC50 ± SD; PBS pH 6.8, 37 °C, three times in parallel; read-out: IC50 (μM), inhibition activities on α-Glucosidase
In this section, each of the compounds is paired with its reported IC50.

compound="COc1cc(/C=C/c2ccccc2)c(C(=O)O)c2c1C[C@@H](O)C(C)(C)O2 [Compound 2, cajanstilbenoid D]" experimental_endpoint=IC50 reported_result="> 2000 µM"
compound="COc1cc(O)cc(/C=C/c2ccccc2)c1 [Compound 6, pinosylvin monomethyl ether]" experimental_endpoint=IC50 reported_result="> 2000 µM"
compound="CC1(C)C=Cc2c(cc(O)c3c2O[C@H](c2ccc(O)cc2)CC3=O)O1 [Compound 26, 8-prenylnaringenin C]" experimental_endpoint=IC50 reported_result="2.35 µM"
compound="COc1cc(O)c2c(c1)O[C@H](c1ccc(O)cc1)CC2=O [Compound 16, sakuranetin]" experimental_endpoint=IC50 reported_result="> 2000 µM"
compound="COc1ccc(-c2oc3cc(O)cc(O)c3c(=O)c2O)cc1O [Compound 19, tamarixetin]" experimental_endpoint=IC50 reported_result="8.7 µM"

The measured IC50 associated with COc1cc(/C=C/c2ccccc2)c(C(=O)O)c(O)c1CC=C(C)C [Compound 5, cajaninstilbene acid] reads > 2000 µM

Lab book: IC50 of COc1cc(O)cc(CC(=O)c2ccccc2)c1CC=C(C)C [Compound 7, cajanotone] noted as > 2000 µM

* * *

Experimental Target: yeast α-glucosidase
Protocol: α-glucosidase inhibitory activity assay (p-NPG substrate, absorbance at 405 nm)
Type: biochemical, Saccharomyces cerevisiae
Run Parameters: unit inferred; read-out: IC50 against α-glucosidase (unit inferred)
Experimental Endpoint: IC50 (nM)
State just the number; it will be interpreted in nM.

IC50 reported for this molecule COc1cc(O)c2c(=O)cc(-c3ccccc3)oc2c1CC=C(C)C [Compound 13, 5-hydroxy-7-methoxy-8-prenylflavone] : 2300

Entry CC(C)=CCc1c(O)cc(O)c2c1O[C@H](c1ccc(O)cc1)[C@@H](O)C2=O — recorded IC50 = 4500

Reported IC50 of CC1(C)C=Cc2c(cc(O)c3c2O[C@H](c2ccc(O)cc2)CC3=O)O1 : 2350

Form: molecule = O=c1cc(-c2ccc(O)c(O)c2)oc2cc(O)ccc12 [Compound 25, 7, 3′, 4′-trihydroxy flavone] ; IC50 = 3170

* * *

Experimental Target: yeast α-glucosidase
Protocol: α-glucosidase inhibitory activity assay (p-NPG substrate, absorbance at 405 nm)
Type: biochemical, Saccharomyces cerevisiae
Run Parameters: IC50 ± SD; PBS pH 6.8, 37 °C, three times in parallel; read-out: IC50 (μM), inhibition activities on α-Glucosidase
Experimental Endpoint: IC50 (µM)
Give the quantity in µM, number only.

compound=COc1cc(O)cc(CCc2ccccc2)c1CC=C(C)C reported_result=7
compound=CC(C)=CCc1c(O)cc(/C=C/c2ccccc2)cc1O reported_result=30.3
compound=CC(C)=CCc1c(O)cc(O)c2c1O[C@H](c1ccc(O)cc1)[C@@H](O)C2=O reported_result=4.5

For COc1cc(O)c2c(=O)cc(-c3ccccc3)oc2c1CC=C(C)C [Compound 13, 5-hydroxy-7-methoxy-8-prenylflavone] the compound record lists IC50 as 2.3

Looking up O=c1cc(-c2ccc(O)c(O)c2)oc2cc(O)ccc12 [Compound 25, 7, 3′, 4′-trihydroxy flavone] , I found its IC50 recorded as 3.17

Reported IC50 of COc1cc(/C=C/c2ccccc2)cc(O)c1CC=C(C)C : 12.9

* * *

Experimental Target: yeast α-glucosidase
Protocol: α-glucosidase inhibitory activity assay (p-NPG substrate, absorbance at 405 nm)
Type: biochemical, Saccharomyces cerevisiae
Run Parameters: IC50 ± SD; PBS pH 6.8, 37 °C, three times in parallel; read-out: IC50 (μM), inhibition activities on α-Glucosidase
Experimental Endpoint: IC50

Reference set, count: 2
compound="COc1ccc2c(=O)c(-c3ccc(O)cc3O)coc2c1 [Compound 18, 7-methoxy-2′, 4′-dihydroxy isoflavone]" reported_result="> 2000 µM"
compound=CC(C)=CCc1c(O)cc2oc(-c3ccccc3)cc(=O)c2c1O reported_result="> 2000 µM"

The recorded IC50 with yeast α-glucosidase for COc1cc(O)c2c(c1)O[C@H](c1ccccc1)CC2=O was > 2000 µM
